Numbers sourced from patent US4952408A.

protocol: tissue drug levels of free and liposomal vincristine (radioimmunoassay)
Format: in vivo, CD2 F1 mice
test context: mouse, spleen, iv, 1 mg/kg, spleen; 1.0 mg; 30'; read-out: vincristine level, spleen
recorded endpoint: concentration at 0.5 h (ng/g)
Give the value in ng/g but do not write ng/g after it.

**Q:** Report concentration at 0.5 h for CC[C@]1(O)C[C@H]2CN(CCc3c([nH]c4ccccc34)[C@@](C(=O)OC)(c3cc4c(cc3OC)N(C=O)[C@H]3[C@@](O)(C(=O)OC)[C@H](OC(C)=O)[C@]5(CC)C=CCN6CC[C@]43[C@@H]65)C2)C1 [free vincristine, vincristine]
**A:** 72
